- Target under test: DRB1*1302 (Homo sapiens, UniProt P01903+P01911, A100E/A169T/K41T/L162R/M171V/P40S/Q125H/Q178H/Q39Y/Q99D/R42S/S66N/T262R/V115G/W38E/Y61H)
- Sequence (P01903 26-254 limits assumed, other chains not shown): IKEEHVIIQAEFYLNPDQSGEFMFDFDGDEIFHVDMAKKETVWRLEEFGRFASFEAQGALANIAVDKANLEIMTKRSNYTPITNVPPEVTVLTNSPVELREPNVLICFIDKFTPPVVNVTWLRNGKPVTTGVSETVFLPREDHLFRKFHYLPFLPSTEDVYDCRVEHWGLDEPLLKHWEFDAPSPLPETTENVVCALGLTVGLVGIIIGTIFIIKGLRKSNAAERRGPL
- Protocol summary: biochemical
- Type: binding
IC50 values, listed per item
Recorded metric: IC50 (µM)

compound="CC[C@H](C)[C@H](NC(=O)CNC(=O)[C@H](Cc1ccc(O)cc1)NC(=O)[C@H](CC(C)C)NC(=O)[C@H](CO)NC(=O)[C@H](CC(C)C)NC(=O)[C@H](CC(C)C)NC(=O)[C@H](CO)NC(=O)[C@@H](N)CC(C)C)C(=O)N[C@@H](Cc1c[nH]cn1)C(=O)N[C@@H](CCCCN)C(=O)N[C@@H](CCC(N)=O)C(=O)N[C@@H](CCCCN)C(=O)N[C@@H](CCC(=O)O)C(=O)N[C@@H](CCCCN)C(=O)O [Peptide 68.0045]" qualifying_sign=> observed_value=20
compound="CC[C@H](C)[C@H](NC(=O)[C@H](Cc1c[nH]c2ccccc12)NC(=O)[C@H](CCC(=O)O)NC(=O)[C@@H]1CCCN1)C(=O)N[C@@H](CCC(N)=O)C(=O)N[C@@H](CCCNC(=N)N)C(=O)N[C@@H](CCC(N)=O)C(=O)N[C@H](C(=O)N[C@H](C(=O)N[C@@H](CC(C)C)C(=O)N[C@@H](CCC(N)=O)C(=O)N[C@@H](Cc1c[nH]cn1)C(=O)N[C@@H](CO)C(=O)N[C@@H](Cc1ccccc1)C(=O)N[C@@H](CC(N)=O)C(=O)O)C(C)C)[C@@H](C)O [Peptide 89.0011]" qualifying_sign== observed_value=0.473
compound="CSCC[C@H](NC(=O)CNC(=O)[C@H](CC(C)C)NC(=O)[C@H](CCC(N)=O)NC(=O)[C@@H](NC(=O)[C@H](CC(C)C)NC(=O)[C@H](CCC(N)=O)NC(=O)CNC(=O)[C@@H](N)Cc1ccccc1)[C@@H](C)O)C(=O)N[C@@H](CCC(=O)O)C(=O)N[C@@H](CCC(N)=O)C(=O)N[C@@H](Cc1c[nH]cn1)C(=O)N[C@@H](Cc1ccc(O)cc1)C(=O)N[C@@H](CCC(=O)O)C(=O)N[C@@H](CC(C)C)C(=O)O [Peptide 68.0028]" qualifying_sign=> observed_value=20
compound="CC[C@H](C)[C@H](NC(=O)[C@@H]1CCCN1C(=O)[C@H](CC(=O)O)NC(=O)[C@@H](NC(=O)[C@@H]1CCCN1C(=O)[C@H](Cc1ccccc1)NC(=O)[C@@H](NC(=O)[C@H](CC(=O)O)NC(=O)[C@@H](NC(=O)[C@@H]1CCCN1C(=O)[C@H](CO)NC(=O)[C@@H](N)CCCNC(=N)N)[C@@H](C)CC)[C@@H](C)O)[C@@H](C)O)C(=O)N[C@@H](CCCCN)C(=O)N[C@@H](CCC(=O)O)C(=O)N[C@@H](CO)C(=O)O [Peptide 68.0026]" qualifying_sign=> observed_value=20
compound="CC(C)C[C@H](NC(=O)[C@H](CCC(N)=O)NC(=O)[C@H](CCCCN)NC(=O)[C@@H](NC(=O)[C@H](CC(C)C)NC(=O)[C@H](CCC(N)=O)NC(=O)[C@@H](NC(=O)[C@H](C)NC(=O)[C@H](CO)NC(=O)[C@@H](NC(=O)[C@@H](NC(=O)[C@H](CC(=O)O)NC(=O)[C@H](CC(=O)O)NC(=O)[C@@H](N)CO)[C@@H](C)O)C(C)C)[C@@H](C)O)C(C)C)C(=O)N[C@@H](CCC(N)=O)C(=O)O [Peptide 1601.13]" qualifying_sign== observed_value=16.5
